# Test system: UO-31
# PROCEDURE_SUMMARY: NCI tumour cell line growth inhibition, 48 h
Active and inactive are the calls of the source. No stated cut-off is given here; in the data, active = GI50 up to about 1.1 µM and inactive = higher.
Listing of entries alongside the reported GI50.

Known results for compounds:
- COMPOUND: "CC(=O)N1CC(C)(C)c2c(C)c(O)c(C)c(C)c21"
  REPORTED_VALUE: "> 100 µM (inactive)"
- COMPOUND: "COc1ccc2c3c1OC1C(OC)(OC)C=C[C@@]4(Br)[C@@H](C2)N(CC2CC2)CC[C@]314 (stereo partly drawn)"
  REPORTED_VALUE: "35.2 µM (inactive)"

# evaluate next
# query: GI50 of entry O=P(c1ccccc1)(c1ccccc1)C1CC=C(c2ccccc2)C2(CCCC2)C1 (stereo not drawn)
25.3 µM (inactive)

* * *

# Tested on: PC-3
# PROCEDURE_SUMMARY: NCI tumour cell line growth inhibition, 48 h
The source made the active and inactive calls. No stated cut-off is given here; in the data, active = GI50 up to about 1.1 µM and inactive = higher.
ENDPOINT_NAME: GI50

Known results for compounds:
- COMPOUND: "CC(=O)OCC1OC(O[C@H]2C=C[C@@H](C(=O)OCc3ccccc3)n3c(=O)n(-c4ccccc4)c(=O)n32)C(OC(C)=O)C(OC(C)=O)C1OC(C)=O (some centres not stated)"
  GI50: "3.69 µM (inactive)"
- COMPOUND: "O=C1c2[nH]c3ccccc3c2CCN2CCCCC12 (configuration not stated)"
  GI50: "18.8 µM (inactive)"
- COMPOUND: "CSCCCCCCCCCCOc1ccc(C=C2C(=C(C#N)C#N)c3ccccc3C2=C(C#N)C#N)cc1"
  GI50: "17.6 µM (inactive)"
- COMPOUND: "Nc1nc(N)c2nc(CNc3ccc(C(=O)O)cc3)[nH]c2n1"
  GI50: "> 100 µM (inactive)"

# query: GI50 of entry CC(C)(C)OC(=O)NC(Cc1ccc(OCc2ccccc2)cn1)C(=O)NCc1ccccc1 (configuration not stated)
20.4 µM (inactive)

Okay, and O=[N+]([O-])c1cccc2nccc(NCCCO)c12 ?
20.7 µM (inactive)

Okay, and CC(=O)c1sc2n(C)c(=O)c3ccccc3[n+]2c1C ?
> 100 µM (inactive)

* * *

# Test system: TK-10
# PROCEDURE_SUMMARY: NCI tumour cell line growth inhibition, 48 h
Active and inactive are the calls of the source. Rule as the data show it: active = GI50 up to about 1.1 µM and inactive = higher.
Listing of entries alongside the reported GI50.

- MOLECULE: "CCOC(=O)/C(=C\\c1ccc(OCc2ccccc2)c(OC)c1)C(=O)c1ccccc1"
  TESTED_ON: "TK-10"
  GI50: "27.5 µM (inactive)"
- MOLECULE: "O=C1C=Cc2cscc21"
  TESTED_ON: "TK-10"
  GI50: "42.5 µM (inactive)"
- MOLECULE: "O=C1C=C(Nc2ccccc2C(=O)CC(=O)C(=O)Nc2cccc(C(F)(F)F)c2)c2ccccc2C1=O"
  TESTED_ON: "TK-10"
  GI50: "> 96.4 µM (inactive)"
- MOLECULE: "Cc1nc(-n2nc(-c3ccccc3)cc2-c2ccccc2)sc1C(=O)/C=C/c1ccc(Cl)c(Cl)c1"
  TESTED_ON: "TK-10"
  GI50: "43.2 µM (inactive)"
- MOLECULE: "COC(=O)[C@]1(C)CCCC2(C)C1CC[C@H]1C=C(C)[C@H]3CCC12C3 (some centres undefined)"
  TESTED_ON: "TK-10"
  GI50: "> 100 µM (inactive)"

# query: GI50 of entry CC1COC(C)(C)P(=O)(c2ccccc2)C1 (centres undefined)
> 100 µM (inactive)

Okay, and Cc1ccc(NC(=O)/C=C/c2ccccc2)c(C)c1 ?
> 100 µM (inactive)

Okay, and O=C1NC(=N/c2ccccc2)/C(=N\c2ccccc2)N1c1ccccc1 ?
16.9 µM (inactive)

Okay, and O=[N+]([O-])C(C(Cl)=C(Cl)Cl)=C(n1nnc2ccccc21)n1nnc2ccccc21 ?
46.1 µM (inactive)
